// provenance: patent EP1991554B1

So I've got a bunch of compounds here, and I need their activation at 100 µM values.
# Test system: γδ T lymphocytes of peripheral blood mononucleate cells (PBMCs)
# assayExplanation: Cytokine production assay on peripheral blood mononucleate cells (PBMCs), cytofluorimetry
# Format: cell-based, human
# conditionDetails: Homo sapiens, PBMC, read-out: % increase in γδ T lymphocytes producing TNFα
Note: unit % is implicit; provide only the numeric part.

Param item = O=P(O)(O)OP(=O)(O)SCCC1CC1 ; retrieve measured activation at 100 µM.
123

Param item = O=P(O)(O)OP(=O)(O)SCCCCCl ; retrieve measured activation at 100 µM.
127

Param item = C[C@H](O)CCSP(=O)(O)OP(=O)(O)O ; retrieve measured activation at 100 µM.
114

Param item = C=C(C)CCSP(=O)(O)OP(=O)(O)O ; retrieve measured activation at 100 µM.
92.6

Param item = C=CCOCCSP(=O)(O)OP(=O)(O)O ; retrieve measured activation at 100 µM.
130

Param item = O=P(O)(O)OP(=O)(O)SCCOCCCl ; retrieve measured activation at 100 µM.
71.8

Param item = C/C(=C\CSP(=O)(O)OP(=O)(O)O)CO ; retrieve measured activation at 100 µM.
175
